Data provenance: ChEMBL document CHEMBL1140498

Here, each record is paired with measured pIC50 data.
- System: NSO
- procedure-details: Growth inhibition of MCSF-independent mouse NSO cells
Scale note: pIC50 = -log10(concentration in M).

>>> df
                                  structure  assayed_system  assay_value
0  Cc1cc(Nc2c(C(N)=O)cnc3cc(-c4ccncc4)ccc23)ccc1Cl             NSO         4.49

Ask: Which pIC50 is listed for NC(=O)c1cnc2cc(-c3ccc(S(N)(=O)=O)cc3)ccc2c1Nc1ccccc1 ?
Reply: 4.89

Ask: Moving on to NC(=O)c1cnc2cc(-c3ccncc3)ccc2c1Nc1ccon1
Reply: 4.40

Ask: Now this one: COc1ccc(-c2ccc3c(Nc4ccccc4)c(C(N)=O)cnc3c2)cc1
Reply: 5.10
